- experimentalTarget: Protein kinase C alpha type (Homo sapiens)
- methodSummary: Binding affinity with protein kinase C (PK-C) alpha bound to labeled [20-3H]-PDBU at a conc of 30 ug/mL
Reported inhibition values for the following molecules.
The answer is to be given in %; state only the numeric part.

Some solved cases for reference:
molecule	recordedMeasurement
O=C1c2c(NCCCNCCO)cccc2C(=O)c2c(NCCCNCCO)ccc(O)c21	30
O=C1c2cccc(O)c2C(=O)c2c(OCCN(CCO)Cc3ccccc3)cccc21	25
COc1cccc2c1C(=O)c1c(O)c3c(c(O)c1C2=O)C[C@@](O)(/C(CO)=N/NC(=O)c1ccc(Cl)c(Cl)c1)C[C@@H]3OC1CC(N)C(O)C(C)O1 (stereo partly specified)	30
CC(=O)C(C(=O)CCSCCO)C(SCCO)c1ccc(Cl)c(Cl)c1 (stereo unspecified)	30

Quick note, inhibition for CC(=O)O[C@@H]1CC2C(C)(C)C(=O)C=CC2(C)C2CCC3(C)C(=CCC3C(CO)CCC(O)C(=O)C(C)(C)O)C21 (stereo partly specified) landed at 27

In plain terms, O=C1c2cccc(O)c2C(=O)c2c(OCCN(CCO)Cc3ccccc3)ccc(O)c21 has a documented inhibition of 34
